- Tested on: SK-N-SH
- procedureDetails: MTT analysis, anticancer activity
- Format: cell-based, human
- setupConditions: 48 hr
Listing of recorded IC50 SK-N-SH by entry.
Give the number; µg/mL is assumed, so skip it.

# molecule, IC50 SK-N-SH / µg/mL
rows = [
    ("COc1ccc(C(O)C(C)Oc2ccc(C3OC(c4ccc(OC(C)[C@@H](O)c5ccc(OC)c(OC)c5)c(OC)c4)C(C)C3C)cc2OC)cc1OC (single isomer, unassigned) [HNP-98701C, manassantin A]", 0.5392),
    ("N.N.[Cl][Pt][Cl] [Cisplatin]", 2.1178),
    ("COc1ccc(C(O)C(C)Oc2ccc(C3OC(c4ccc(OC(C)[C@@H](O)c5ccc(OC)c(OC)c5)c(OC)c4)C(C)C3C)cc2OC)cc1OC (single isomer, unassigned) [HNP-98701A, epi-manassantin A]", 1.2849),
]

Consider the record given below.
Tested on SK-N-SH, the item COc1ccc(C(O)C(C)Oc2ccc(C3OC(c4ccc(OC(C)[C@@H](O)c5ccc(OC)c(OC)c5)c(OC)c4)C(C)C3C)cc2OC)cc1OC (single isomer, unassigned) [HNP-98701B] showed IC50 SK-N-SH equal to 0.4314

These measurements were taken from patent US20040024055A1.
